molecular target: Macrophage colony-stimulating factor 1 receptor (Homo sapiens); assay: Inhibition of CSF-1R (unknown origin)
Sequence (P07333 whole entry): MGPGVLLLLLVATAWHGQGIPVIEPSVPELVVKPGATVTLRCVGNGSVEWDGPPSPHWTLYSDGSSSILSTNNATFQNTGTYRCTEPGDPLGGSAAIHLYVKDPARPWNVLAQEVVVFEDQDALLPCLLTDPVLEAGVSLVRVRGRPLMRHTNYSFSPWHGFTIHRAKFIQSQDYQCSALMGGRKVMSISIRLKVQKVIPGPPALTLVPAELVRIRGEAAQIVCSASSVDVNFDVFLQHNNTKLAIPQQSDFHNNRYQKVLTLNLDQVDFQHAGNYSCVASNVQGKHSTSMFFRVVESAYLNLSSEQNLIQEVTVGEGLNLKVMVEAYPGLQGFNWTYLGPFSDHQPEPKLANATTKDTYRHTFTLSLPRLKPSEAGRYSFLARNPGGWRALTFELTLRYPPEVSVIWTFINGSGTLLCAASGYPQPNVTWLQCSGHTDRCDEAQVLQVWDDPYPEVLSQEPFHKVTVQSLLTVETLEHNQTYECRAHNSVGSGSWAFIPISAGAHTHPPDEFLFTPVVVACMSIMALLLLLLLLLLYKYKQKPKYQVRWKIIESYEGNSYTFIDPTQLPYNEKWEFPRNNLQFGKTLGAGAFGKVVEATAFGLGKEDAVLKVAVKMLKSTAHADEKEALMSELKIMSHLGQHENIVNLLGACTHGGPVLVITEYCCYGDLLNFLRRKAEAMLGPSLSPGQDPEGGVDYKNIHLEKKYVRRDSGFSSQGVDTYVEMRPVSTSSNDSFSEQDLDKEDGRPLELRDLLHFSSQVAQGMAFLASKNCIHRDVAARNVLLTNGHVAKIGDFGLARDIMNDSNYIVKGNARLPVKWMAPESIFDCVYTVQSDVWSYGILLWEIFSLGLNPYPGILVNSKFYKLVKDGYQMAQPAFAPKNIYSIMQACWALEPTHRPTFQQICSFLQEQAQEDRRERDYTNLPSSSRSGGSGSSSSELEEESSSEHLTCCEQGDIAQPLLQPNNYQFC
measured.property: IC50

(Q) What IC50 value was documented for this molecule, `OC[C@H](Nc1nc2ccc(Oc3c[nH]c4ncc(Cl)cc34)cc2s1)C1CCCCC1` ?
(A) > 1 µM

(Q) What IC50 value was documented for this molecule, `Cc1nc(NC(=O)N[C@@H]2CCCC[C@H]2O)ccc1Oc1c[nH]c2ncc(Cl)cc12` ?
(A) 0.0201 µM

(Q) What IC50 value was documented for this molecule, `Cc1nc(NC(=O)Nc2cccc(Cl)c2)ccc1Oc1c[nH]c2ncc(Cl)cc12` ?
(A) 0.0346 µM

(Q) What IC50 value was documented for this molecule, `Cc1nc(NC(=O)NCc2ccc(C(F)(F)F)nc2)ccc1Oc1c[nH]c2ncc(Cl)cc12` ?
(A) 0.406 µM

(Q) What IC50 value was documented for this molecule, `O[C@@H]1CCCC[C@H]1Nc1nc2ccc(Oc3c[nH]c4nccc(F)c34)cc2s1` ?
(A) 0.0414 µM

(Q) What IC50 value was documented for this molecule, `O[C@@H]1CCCC[C@H]1Nc1nc2ccc(Oc3c[nH]c4ncc(F)cc34)cc2s1` ?
(A) 0.0306 µM

(Q) What IC50 value was documented for this molecule, `Cc1nc(NC(=O)Nc2ccc(N3CCN(C)CC3)cc2)ccc1Oc1c[nH]c2ncc(Cl)cc12` ?
(A) 0.593 µM

(Q) What IC50 value was documented for this molecule, `Cc1nc(NC(=O)Nc2ccc(C(C)(C)C)c(Cl)c2)ccc1Oc1c[nH]c2ncc(Cl)cc12` ?
(A) > 1 µM

(Q) What IC50 value was documented for this molecule, `Cc1nc(NC(=O)Nc2ccc(F)cc2)ccc1Oc1c[nH]c2ncc(Cl)cc12` ?
(A) 0.0856 µM

(Q) What IC50 value was documented for this molecule, `O=C(Nc1ccc(Oc2c[nH]c3ncc(Cl)cc23)cc1)N[C@@H]1CCCC[C@H]1O` ?
(A) 0.0435 µM

(Q) What IC50 value was documented for this molecule, `Cc1nc(NC(=O)Nc2ccc(C(F)(F)F)cc2)ccc1Oc1c[nH]c2ncc(Cl)cc12` ?
(A) 0.0489 µM

These entries and their values trace back to ChEMBL document CHEMBL6103622.
